Values compiled from patent US9926293B2.

biological target: KRAS^G12D I36N (Homo sapiens, UniProt P01116, G12D/I36N); construct: His6 (N); made in house; test: Microscale thermophoresis on binding-site mutant KRAS^G12D I36N; details: MST, 31MEW79 experiment of b434
Sequence (P01116 1-169 isoform P01116-2 G12D/I36N): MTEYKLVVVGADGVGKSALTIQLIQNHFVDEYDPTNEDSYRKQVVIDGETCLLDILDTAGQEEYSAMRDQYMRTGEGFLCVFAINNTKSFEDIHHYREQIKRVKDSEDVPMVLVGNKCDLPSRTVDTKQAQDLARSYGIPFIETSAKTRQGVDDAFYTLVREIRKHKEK
parameterMeasured: pKd
One number for each entry, as −log10 of the molar value.

Exercise: What does the record list as pKd for NCCC[C@@H](NC(=O)CN1CCCNCC1)C(=O)NC1Cc2ccccc2C1 [Compound 31MEW79] ?
Solution: 4.33

###

molecular target: KRAS^G12D with GDP (Homo sapiens, UniProt P01116, G12D); assay: Microscale thermophoresis, GDP-loaded KRAS^G12D; conditions: MST, GDP-loaded KRAS^G12D
Sequence (P01116 1-169 isoform P01116-2 G12D): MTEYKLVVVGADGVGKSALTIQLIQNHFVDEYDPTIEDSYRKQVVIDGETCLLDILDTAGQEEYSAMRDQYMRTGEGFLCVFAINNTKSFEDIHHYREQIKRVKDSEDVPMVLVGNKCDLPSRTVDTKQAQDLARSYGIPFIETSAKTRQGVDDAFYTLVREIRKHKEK
parameterMeasured: Kd (µM)
Answers are plain numbers, in µM.

Exercise: Short answer please: Kd, KRAS^G12D with GDP (Homo sapiens, UniProt P01116, G12D), entry NC1(C(=O)NCCCn2cc(-c3ccc(OC(F)(F)F)cc3)c3cc(CN4CCN(Cc5c(Cl)cccc5Cl)CC4)ccc32)CCNCC1 [Compound 31MEW44]
Solution: 45
